Tested on: 323965-272-R-J2-PDC complex spheroid viability
Experiment: Anticancer human tumor 323965-272-R-J2-PDC patient-derived pancreatic carcinoma cell line growth inhibition [CLK]; active = viability on the fitted dose curve at most 10% of control; inactive = the rest
Conditions: second compound 10 µM; first compound 1 µM
Possible outcomes: T (active), F (inactive)

[
  {
    "COMPOUND": "CC(Nc1ccc2c(c1)OCCn1cc(N3C(=O)OCC3C(F)F)nc1-2)C(N)=O (stereo unspecified) + CNC(=O)c1ccc(Nc2nc(OC3CCCC3)c3c(-c4ccc5nc(C)oc5c4)c[nH]c3n2)c(OC)c1",
    "LABEL VALUE": "F"
  },
  {
    "COMPOUND": "CC1(C)CCC(CN2CCN(c3ccc(C(=O)NS(=O)(=O)c4ccc(NCC5CCOCC5)c([N+](=O)[O-])c4)c(Oc4cnc5[nH]ccc5c4)c3)CC2)=C(c2ccc(Cl)cc2)C1 + CN1CCN(c2cc(C(=O)Nc3cc4cc(-c5cnn(C)c5)ccc4cn3)ccn2)CC1",
    "LABEL VALUE": "T"
  },
  {
    "COMPOUND": "COC1C=CCC(C)C(C)S(=O)(=O)NC(=O)c2ccc3c(c2)N(CC2CCC21)CC1(CCCc2cc(Cl)ccc21)CO3 (stereo unspecified) + CNC(=O)c1ccc(Nc2nc(OC3CCCC3)c3c(-c4ccc5nc(C)oc5c4)c[nH]c3n2)c(OC)c1",
    "LABEL VALUE": "F"
  },
  {
    "COMPOUND": "C=CC(=O)N1CCN(c2nc(=O)n(-c3c(C)ccnc3C(C)C)c3nc(-c4c(O)cccc4F)c(F)cc23)C(C)C1 (stereo unspecified) + CNC(=O)c1ccc(Nc2nc(OC3CCCC3)c3c(-c4ccc5nc(C)oc5c4)c[nH]c3n2)c(OC)c1",
    "LABEL VALUE": "F"
  },
  {
    "COMPOUND": "O=C(c1cc(Cc2n[nH]c(=O)c3ccccc23)ccc1F)N1CCN(C(=O)C2CC2)CC1 + CNC(=O)c1ccc(Nc2nc(OC3CCCC3)c3c(-c4ccc5nc(C)oc5c4)c[nH]c3n2)c(OC)c1",
    "LABEL VALUE": "F"
  },
  {
    "COMPOUND": "CC1COCCN1c1cc(C2(S(C)(=N)=O)CC2)nc(-c2ccnc3[nH]ccc23)n1 (stereo unspecified) + CN1CCN(c2cc(C(=O)Nc3cc4cc(-c5cnn(C)c5)ccc4cn3)ccn2)CC1",
    "LABEL VALUE": "T"
  },
  {
    "COMPOUND": "COc1c(OCCCN2CCOCC2)ccc2c3n(c(=NC(=O)c4cnc(N)nc4)nc12)CCN3 + CN1CCN(c2cc(C(=O)Nc3cc4cc(-c5cnn(C)c5)ccc4cn3)ccn2)CC1",
    "LABEL VALUE": "T"
  },
  {
    "COMPOUND": "C#Cc1c(F)ccc2cc(O)cc(-c3ncc4c(N5CC6CCC(C5)N6)nc(OCC56CCCN5CC(F)C6)nc4c3F)c12 (stereo unspecified) + CN1CCN(c2cc(C(=O)Nc3cc4cc(-c5cnn(C)c5)ccc4cn3)ccn2)CC1",
    "LABEL VALUE": "T"
  },
  {
    "COMPOUND": "O=c1[nH]cc(F)c(=O)[nH]1 + CN1CCN(c2cc(C(=O)Nc3cc4cc(-c5cnn(C)c5)ccc4cn3)ccn2)CC1",
    "LABEL VALUE": "T"
  },
  {
    "COMPOUND": "CC(Nc1ccc2c(c1)OCCn1cc(N3C(=O)OCC3C(F)F)nc1-2)C(N)=O (stereo unspecified) + CN1CCN(c2cc(C(=O)Nc3cc4cc(-c5cnn(C)c5)ccc4cn3)ccn2)CC1",
    "LABEL VALUE": "T"
  },
  {
    "COMPOUND": "CC(CO)NC(=O)c1cc(-c2ccc(Cl)cc2)nn(-c2cnn(C)c2)c1=O (stereo unspecified) + CN1CCN(c2cc(C(=O)Nc3cc4cc(-c5cnn(C)c5)ccc4cn3)ccn2)CC1",
    "LABEL VALUE": "T"
  },
  {
    "COMPOUND": "C#Cc1c(F)ccc2cc(O)cc(-c3ncc4c(N5CC6CCC(C5)N6)nc(OCC56CCCN5CC(F)C6)nc4c3F)c12 (stereo unspecified) + CNC(=O)c1ccc(Nc2nc(OC3CCCC3)c3c(-c4ccc5nc(C)oc5c4)c[nH]c3n2)c(OC)c1",
    "LABEL VALUE": "F"
  },
  {
    "COMPOUND": "C=CC(=O)N1CCN(c2nc(=O)n(-c3c(C)ccnc3C(C)C)c3nc(-c4c(O)cccc4F)c(F)cc23)C(C)C1 (stereo unspecified) + CN1CCN(c2cc(C(=O)Nc3cc4cc(-c5cnn(C)c5)ccc4cn3)ccn2)CC1",
    "LABEL VALUE": "T"
  },
  {
    "COMPOUND": "C=C(F)C(=O)N1CCN(c2nc(OCC3CCCN3C)nc3c2CCN(c2cccc4cccc(Cl)c24)C3)CC1CC#N (stereo unspecified) + CNC(=O)c1ccc(Nc2nc(OC3CCCC3)c3c(-c4ccc5nc(C)oc5c4)c[nH]c3n2)c(OC)c1",
    "LABEL VALUE": "F"
  },
  {
    "COMPOUND": "O=c1[nH]cc(F)c(=O)[nH]1 + CNC(=O)c1ccc(Nc2nc(OC3CCCC3)c3c(-c4ccc5nc(C)oc5c4)c[nH]c3n2)c(OC)c1",
    "LABEL VALUE": "F"
  },
  {
    "COMPOUND": "CCN1CCN(Cc2ccc(Nc3ncc(F)c(-c4cc(F)c5nc(C)n(C(C)C)c5c4)n3)nc2)CC1 + CNC(=O)c1ccc(Nc2nc(OC3CCCC3)c3c(-c4ccc5nc(C)oc5c4)c[nH]c3n2)c(OC)c1",
    "LABEL VALUE": "F"
  }
]

* * *

Test system: 323965-272-R-J2-PDC complex spheroid viability
Assay: Anticancer human tumor 323965-272-R-J2-PDC cell line growth inhibition [CLK];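 also: spheroids exposed to agents for seven days before readout; percent of DMSO vehicle control wells so 100% = untreated growth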
Conditions: second compound 1 µM; first compound 0.1 µM; stronger effect = lower value
PROPERTY MEASURED: viability, T/C (%)

[
  {
    "COMPOUND": "CC1(C)CCC(CN2CCN(c3ccc(C(=O)NS(=O)(=O)c4ccc(NCC5CCOCC5)c([N+](=O)[O-])c4)c(Oc4cnc5[nH]ccc5c4)c3)CC2)=C(c2ccc(Cl)cc2)C1 + CNC(=O)c1ccc(Nc2nc(OC3CCCC3)c3c(-c4ccc5nc(C)oc5c4)c[nH]c3n2)c(OC)c1",
    "OBS VALUE": 45.9
  },
  {
    "COMPOUND": "COc1c(OCCCN2CCOCC2)ccc2c3n(c(=NC(=O)c4cnc(N)nc4)nc12)CCN3 + CN1CCN(c2cc(C(=O)Nc3cc4cc(-c5cnn(C)c5)ccc4cn3)ccn2)CC1",
    "OBS VALUE": 2.22
  }
]

* * *

Tested on: 323965-272-R-J2-PDC complex spheroid viability
Assay: Anticancer human tumor 323965-272-R-J2-PDC cell line growth inhibition [CLK];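 also: spheroids exposed to agents for seven days before readout; percent of DMSO vehicle control wells so 100% = untreated growth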
Details: second compound 0.0316 µM; first compound 0.0316 µM; stronger effect = lower value

[
  {
    "MOLECULE": "C=C(F)C(=O)N1CCN(c2nc(OCC3CCCN3C)nc3c2CCN(c2cccc4cccc(Cl)c24)C3)CC1CC#N (stereo not given) + CN1CCN(c2cc(C(=O)Nc3cc4cc(-c5cnn(C)c5)ccc4cn3)ccn2)CC1",
    "ASSAY TARGET": "323965-272-R-J2-PDC complex spheroid viability",
    "viability, T/C [%]": 59
  },
  {
    "MOLECULE": "Cn1ncnc1[C@H]1c2n[nH]c(=O)c3cc(F)cc(c23)N[C@@H]1c1ccc(F)cc1 + CN1CCN(c2cc(C(=O)Nc3cc4cc(-c5cnn(C)c5)ccc4cn3)ccn2)CC1",
    "ASSAY TARGET": "323965-272-R-J2-PDC complex spheroid viability",
    "viability, T/C [%]": 97
  },
  {
    "MOLECULE": "CC1COCCN1c1cc(C2(S(C)(=N)=O)CC2)nc(-c2ccnc3[nH]ccc23)n1 (stereo not given) + CNC(=O)c1ccc(Nc2nc(OC3CCCC3)c3c(-c4ccc5nc(C)oc5c4)c[nH]c3n2)c(OC)c1",
    "ASSAY TARGET": "323965-272-R-J2-PDC complex spheroid viability",
    "viability, T/C [%]": 109
  },
  {
    "MOLECULE": "C=CC(=O)N1CCN(c2nc(=O)n(-c3c(C)ccnc3C(C)C)c3nc(-c4c(O)cccc4F)c(F)cc23)C(C)C1 (stereo not given) + CN1CCN(c2cc(C(=O)Nc3cc4cc(-c5cnn(C)c5)ccc4cn3)ccn2)CC1",
    "ASSAY TARGET": "323965-272-R-J2-PDC complex spheroid viability",
    "viability, T/C [%]": 63
  },
  {
    "MOLECULE": "O=C(c1cc(Cc2n[nH]c(=O)c3ccccc23)ccc1F)N1CCN(C(=O)C2CC2)CC1 + CN1CCN(c2cc(C(=O)Nc3cc4cc(-c5cnn(C)c5)ccc4cn3)ccn2)CC1",
    "ASSAY TARGET": "323965-272-R-J2-PDC complex spheroid viability",
    "viability, T/C [%]": 91.1
  }
]
